Listed here are molecules together with their documented IC50.
Tested on: MCF-7 cells
TEST DESCRIPTION: MTT cytotoxicity assay, MCF-7
Assay type: cell-based, human
CONDITIONS USED: Homo sapiens, MCF7; MTT, 72 h incubation; read-out: IC50 (average ± standard deviation) MCF-7

MOLECULE: CCCCCCCCCCCC1=C(O)C(=O)C=C(O)C1=O [Embelin]
IC50: 11 µM
//
MOLECULE: C=C(CC)C(=O)c1ccc(OCC(=O)O)c(Cl)c1Cl [Ethacrynic acid, EA, Ethacrynic acid]
IC50: 13 µM
//
MOLECULE: CC(C)c1cc(C(C)C)c(CC(=O)NS(=O)(=O)Oc2c(C(C)C)cccc2C(C)C)c(C(C)C)c1 [Avasimibe]
IC50: 12 µM

Values from paper PMC12289066
